target_under_test: T1, 4H335-AA
T1 chain: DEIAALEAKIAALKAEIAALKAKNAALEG
assay: two-hybrid library CCmax;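 also: natural log of median RNA to DNA barcode read ratio; higher means stronger binding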
measurement_setup: mean of both orientations
Rule for this label: t means interaction score is less than -0.6; f means interaction score is at least -0.6.

Illustrative cases are given below, each with its answer.
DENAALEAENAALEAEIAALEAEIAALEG [4H1153-AA] :: f
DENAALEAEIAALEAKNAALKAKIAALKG [4H1086-AA] :: t
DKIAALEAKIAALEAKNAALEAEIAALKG [4H2354-AA] :: t

Request: In plain terms, does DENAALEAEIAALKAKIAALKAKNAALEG [4H1135-AA] come in under -0.6 for interaction score?
Response: f

Request: In plain terms, does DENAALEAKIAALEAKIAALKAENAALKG [4H1324-AA] come in under -0.6 for interaction score?
Response: f

Request: In plain terms, does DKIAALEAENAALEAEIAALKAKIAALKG [4H2190-AA] come in under -0.6 for interaction score?
Response: f

Request: In plain terms, does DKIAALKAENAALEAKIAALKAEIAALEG [4H2729-AA] come in under -0.6 for interaction score?
Response: t
